Quick list: cytotoxicity at 70.5 h per entry.
- ASSAY PROTOCOL: Human HepG2 cell viability assay in 384 well format
- Format: toxicity, cell-based
- Parameters: dose 125 nL, time 70.5 hour; concentration not given beside the values
- PARTICULARS: HepG2 cells, read-out: Inhibition
MEASUREMENT NAME: cytotoxicity at 70.5 h (%)

{"MOLECULE": "Cc1nc(N2CCC(C)CC2)ncc1-c1cc(O)nc(N2CCCC2)n1", "MEASUREMENT NAME": "cytotoxicity at 70.5 h", "ENDPOINT UNIT": "%", "ENDPOINT VALUE": 1.46}
{"MOLECULE": "COCCNc1nnc(-c2ccccn2)s1", "MEASUREMENT NAME": "cytotoxicity at 70.5 h", "ENDPOINT UNIT": "%", "ENDPOINT VALUE": -4.27}
{"MOLECULE": "Cc1nnc(NCCc2coc(-c3ccc(F)cc3)n2)c(C#N)c1C", "MEASUREMENT NAME": "cytotoxicity at 70.5 h", "ENDPOINT UNIT": "%", "ENDPOINT VALUE": -13.9}
{"MOLECULE": "NC(=O)c1cn[nH]c1C1CCCN1C(=O)c1cnccn1 (stereo not given)", "MEASUREMENT NAME": "cytotoxicity at 70.5 h", "ENDPOINT UNIT": "%", "ENDPOINT VALUE": -10.1}
{"MOLECULE": "COc1nn(C)cc1-c1nnc(SCc2cccnc2)n1C", "MEASUREMENT NAME": "cytotoxicity at 70.5 h", "ENDPOINT UNIT": "%", "ENDPOINT VALUE": -5.69}
{"MOLECULE": "CCOc1cc(CN2CCCC2)ccc1Oc1cccc(C#N)n1", "MEASUREMENT NAME": "cytotoxicity at 70.5 h", "ENDPOINT UNIT": "%", "ENDPOINT VALUE": -1.2}
{"MOLECULE": "COC(C)(C)CNC(=O)N(C)Cc1nc(-c2ccccc2)c[nH]1", "MEASUREMENT NAME": "cytotoxicity at 70.5 h", "ENDPOINT UNIT": "%", "ENDPOINT VALUE": 24.9}
{"MOLECULE": "Cc1nc(O)cc(C2CCN(C(=O)c3ccsc3)CC2)n1", "MEASUREMENT NAME": "cytotoxicity at 70.5 h", "ENDPOINT UNIT": "%", "ENDPOINT VALUE": -5.48}
{"MOLECULE": "c1cncc(-c2noc(CN3CCn4c(nnc4C4CC4)C3)n2)c1", "MEASUREMENT NAME": "cytotoxicity at 70.5 h", "ENDPOINT UNIT": "%", "ENDPOINT VALUE": -1.9}
{"MOLECULE": "COC(=O)CCNC(=O)c1ccc(NC(=O)N(C)CC(C)(C)C)cc1", "MEASUREMENT NAME": "cytotoxicity at 70.5 h", "ENDPOINT UNIT": "%", "ENDPOINT VALUE": -6.05}

----------
- ASSAY PROTOCOL: Human HepG2 cell viability assay in 384 well format
- Type: toxicity, cell-based
- Set-up: dose 125 nL, time 70.5 hour; concentration not given beside the values
- PARTICULARS: HepG2 cells, read-out: Inhibition

{"MOLECULE": "CCc1nnc(C2Cc3ccccc3CN2Cc2nc(C)no2)o1 (stereo not drawn)", "ENDPOINT UNIT": "%", "cytotoxicity at 70.5 h": -3.78}
{"MOLECULE": "Cc1nn2c(N3CCS(=O)(=O)CC3)cc(-c3ccccc3)nc2c1C", "ENDPOINT UNIT": "%", "cytotoxicity at 70.5 h": 1.53}
{"MOLECULE": "CNC(=O)CN(C(=O)c1cc(C(C)C)no1)c1cccc(F)c1", "ENDPOINT UNIT": "%", "cytotoxicity at 70.5 h": 27.9}
